test system: HCI-012 (organoid from a breast cancer xenograft); test: CTG-3D luminescence at 96 h relative to day-0 seeding control (ratio to day 0); higher = more growth / less cytotoxicity; PDxO 3D drug screen, 96 h, CTG-3D normalised to day-0 seeding control.; settings: 12.5 pM; days in culture: 143
# CTG-3D luminescence at 96 h per record follows
# answer = number (no unit)

Please give the measured CTG-3D luminescence at 96 h for this molecule: C[C@]12CC[C@@H]3c4ccc(O)cc4C[C@@H](CCCCCCCCC[S+]([O-])CCCC(F)(F)C(F)(F)F)[C@H]3[C@@H]1CC[C@@H]2O (stereo partly drawn)
2.28

Given the molecule `CS(=O)(=O)c1ccc(C(=O)Nc2ccc(Cl)c(-c3ccccn3)c2)c(Cl)c1` , what is its reported CTG-3D luminescence at 96 h?
2.03

Look at this molecule and give its reported CTG-3D luminescence at 96 h. `CC1(C)CCC(c2ccc(Cl)cc2)=C(CN2CCN(c3ccc(C(=O)NS(=O)(=O)c4ccc(N[C@H](CCN5CCOCC5)CSc5ccccc5)c(S(=O)(=O)C(F)(F)F)c4)cc3)CC2)C1`
1.69
